log10 half-life at 100 µM for assorted compounds
assay: Half life of compound assessed as human serum esterase-mediated degradation at 100 uM by RP-HPLC analysis; type: ADME
Would you kindly interpret these values as log10 of half-life at 100 µM expressed in min?

>  <COMPOUND>
COc1cccc2c1C(=O)c1c(O)c3c(c(O)c1C2=O)C[C@@](O)(C(=O)COC(=O)c1ccc(C(N)=S)cc1)C[C@@H]3O[C@H]1C[C@H](N)[C@H](O)[C@H](C)O1.Cl

>  <MEASURED VALUE>
1.58

$$$$
>  <COMPOUND>
COc1cccc2c1C(=O)c1c(O)c3c(c(O)c1C2=O)C[C@@](O)(C(=O)COC(=O)COc1ccc(-c2cc(=S)ss2)cc1)C[C@@H]3O[C@H]1C[C@H](N)[C@H](O)[C@H](C)O1.Cl

>  <MEASURED VALUE>
0.48

$$$$
>  <COMPOUND>
COc1cccc2c1C(=O)c1c(O)c3c(c(O)c1C2=O)C[C@@](O)(C(=O)COC(=O)c1ccc(-c2cssc2=S)cc1)C[C@@H]3O[C@H]1C[C@H](N)[C@H](O)[C@H](C)O1.Cl

>  <MEASURED VALUE>
2.44

$$$$
>  <COMPOUND>
COc1cccc2c1C(=O)c1c(O)c3c(c(O)c1C2=O)C[C@@](O)(C(=O)COC(=O)c1csc(=S)s1)C[C@@H]3O[C@H]1C[C@H](N)[C@H](O)[C@H](C)O1.Cl

>  <MEASURED VALUE>
1.23

$$$$
>  <COMPOUND>
C=CCSCC(NC(C)=O)C(=O)OCC(=O)[C@]1(O)Cc2c(O)c3c(c(O)c2[C@@H](O[C@H]2C[C@H](N)[C@H](O)[C@H](C)O2)C1)C(=O)c1c(OC)cccc1C3=O.Cl (some centres not stated)

>  <MEASURED VALUE>
1.04

$$$$

Quick check: log10 half-life at 100 µM of COc1cccc2c1C(=O)c1c(O)c3c(c(O)c1C2=O)C[C@@](O)(C(=O)COC(=O)c1ccc(-c2ssc(=S)c2-c2ccccc2)cc1)C[C@@H]3O[C@H]1C[C@H](N)[C@H](O)[C@H](C)O1.Cl ? 2.23

Quick check: log10 half-life at 100 µM of C=CCSSCCC(=O)OCC(=O)[C@]1(O)Cc2c(O)c3c(c(O)c2[C@@H](O[C@H]2C[C@H](N)[C@H](O)[C@H](C)O2)C1)C(=O)c1c(OC)cccc1C3=O.Cl ? 2.36

Data origin: ChEMBL document CHEMBL3817826
